assay: Inhibition of MEK (unknown origin); parameters: species or system Homo sapiens
reported.endpoint: pIC50
One number for each entry, as −log10 of the molar value.

Request: Which value of pIC50 has been reported for "COC(=O)Nc1cc(-c2ccc(OC[C@@](C)(N)CC(C)C)c(C(F)F)n2)ccn1" in the records?
Result: 6.21

---

Hi there, I'd appreciate the recorded concentration at 5.5 h for every entry that follows.
experiment: Drug concentration in CCI induced thermal hyperalgesia in Sprague-Dawley rat spinal cord at 1 mg/kg, po measured after 5.5 hrs; assay type: ADME, organism-based; conditions: read-out: Ct
Answers are plain numbers, in µM.

CC(=O)Nc1cc(-c2ccc(OC[C@@H](N)CC(C)C)c(F)c2)ccn1    0.27

// next item, concentration at 5.5 h requested
Request: Which value of concentration at 5.5 h has been reported for "CC(C)C[C@](C)(N)COc1cnc(-c2ccnc(C(F)F)c2)cc1C(F)F" in the records?
Result: 0.217

Values compiled from ChEMBL document CHEMBL5154787.
